# system_name: UniProtKB Q08881
# Sequence (Q08881 whole entry, looked up): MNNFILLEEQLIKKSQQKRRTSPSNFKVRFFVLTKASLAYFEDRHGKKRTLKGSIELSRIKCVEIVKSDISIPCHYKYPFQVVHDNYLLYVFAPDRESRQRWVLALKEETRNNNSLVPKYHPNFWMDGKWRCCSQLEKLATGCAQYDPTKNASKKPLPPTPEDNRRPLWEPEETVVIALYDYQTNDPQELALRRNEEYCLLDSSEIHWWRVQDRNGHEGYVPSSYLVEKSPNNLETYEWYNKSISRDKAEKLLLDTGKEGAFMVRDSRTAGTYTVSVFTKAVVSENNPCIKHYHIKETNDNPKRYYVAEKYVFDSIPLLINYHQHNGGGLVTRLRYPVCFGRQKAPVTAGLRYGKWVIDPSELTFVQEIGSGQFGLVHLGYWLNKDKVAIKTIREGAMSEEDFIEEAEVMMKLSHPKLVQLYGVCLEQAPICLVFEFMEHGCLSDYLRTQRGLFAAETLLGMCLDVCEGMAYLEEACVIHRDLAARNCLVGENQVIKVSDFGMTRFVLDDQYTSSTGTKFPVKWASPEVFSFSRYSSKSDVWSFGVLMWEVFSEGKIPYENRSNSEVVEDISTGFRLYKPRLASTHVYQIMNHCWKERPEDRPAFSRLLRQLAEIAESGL
# assay_summary: radiometric filter-binding kinase assay, Kinase HotSpot
# assay_setup: compound 0.5 µM; ATP 10 µM

>  <smiles>
COc1ccc(C(=O)Nc2sc3c(c2C(N)=O)CCCC3)cc1OC

>  <quantity_unit>
%

>  <residual activity>
99.6

$$$$
>  <smiles>
N#Cc1c[nH]c2c[nH]/c(=N\Cc3cccnc3)cc2/c1=N\c1ccc(F)c(Cl)c1

>  <quantity_unit>
%

>  <residual activity>
99.1

$$$$
>  <smiles>
C[C@@H]1CCN(C(=O)CC#N)C[C@@H]1N(C)c1ncnc2[nH]ccc12

>  <quantity_unit>
%

>  <residual activity>
99.1

$$$$
>  <smiles>
Cc1cncc2cccc(S(=O)(=O)N3CCCN(C(=O)CN)C[C@H]3C)c12

>  <quantity_unit>
%

>  <residual activity>
97.2

$$$$
>  <smiles>
O=C1Nc2ccc(Br)cc2/C1=C\c1cc2c([nH]1)CCCC2

>  <quantity_unit>
%

>  <residual activity>
87.5

$$$$
>  <smiles>
COc1ccc(Cl)cc1NC(=O)Nc1cc(C)nc2ccccc12

>  <quantity_unit>
%

>  <residual activity>
96

$$$$
>  <smiles>
Ic1cccc(CSc2nnc(-c3ccncc3)o2)c1

>  <quantity_unit>
%

>  <residual activity>
102

$$$$
>  <smiles>
CN(C)c1ccc(/C=C2\C(=O)Nc3ccccc32)cc1

>  <quantity_unit>
%

>  <residual activity>
99

$$$$
>  <smiles>
COc1ccc2c(c1)/C(=C/c1cnc[nH]1)C(O)=N2

>  <quantity_unit>
%

>  <residual activity>
94

$$$$
>  <smiles>
COc1cc2ncnc(Nc3ccc(Oc4ccccc4)cc3)c2cc1OC

>  <quantity_unit>
%

>  <residual activity>
93.6

$$$$
>  <smiles>
N#C/C(=C\c1ccc(O)c(O)c1)C(=O)NCc1ccccc1

>  <quantity_unit>
%

>  <residual activity>
98.8

$$$$
>  <smiles>
O=C1C(Cl)=C(N2C(=O)CCC2=O)C(=O)c2ccccc21

>  <quantity_unit>
%

>  <residual activity>
87.5

$$$$
>  <smiles>
COc1ccc2c(c1)c(C1=C(c3c[nH]c4ccccc34)C(=O)NC1=O)cn2CCCN(C)C

>  <quantity_unit>
%

>  <residual activity>
70.4

$$$$
>  <smiles>
COc1ccc(S(=O)(=O)N(CCO)c2ccccc2CN(C)C/C=C/c2ccc(Cl)cc2)cc1

>  <quantity_unit>
%

>  <residual activity>
97.1

$$$$
>  <smiles>
CN(C)CCCn1cc(C2=C(c3c[nH]c4ccccc34)C(=O)NC2=O)c2ccccc21

>  <quantity_unit>
%

>  <residual activity>
102

$$$$
>  <smiles>
COc1cc2ncnc(Nc3ccc(OCc4ccccc4)cc3)c2cc1OC

>  <quantity_unit>
%

>  <residual activity>
96.2

$$$$
>  <smiles>
CCCCc1c(-c2ccc(OC)cc2)[nH]c2nccnc12

>  <quantity_unit>
%

>  <residual activity>
99.4

$$$$
>  <smiles>
CS(=O)(=O)CCNCc1ccc(-c2ccc3ncnc(Nc4ccc(OCc5cccc(F)c5)c(Cl)c4)c3c2)o1

>  <quantity_unit>
%

>  <residual activity>
98.3

$$$$
>  <smiles>
O=C1NC(=O)c2c1c1c3ccccc3[nH]c1n1cncc21

>  <quantity_unit>
%

>  <residual activity>
71.4

$$$$
>  <smiles>
Fc1ccc(-c2nc3n(c2-c2ccncc2)CCS3)cc1

>  <quantity_unit>
%

>  <residual activity>
97.5

$$$$
>  <smiles>
CO[C@@H]1[C@H](N(C)C(=O)c2ccccc2)C[C@H]2O[C@]1(C)n1c3ccccc3c3c4c(c5c6ccccc6n2c5c31)C(=O)NC4

>  <quantity_unit>
%

>  <residual activity>
70.6

$$$$
>  <smiles>
c1ccc2c(-c3ccncc3)c[nH]c2c1

>  <quantity_unit>
%

>  <residual activity>
94.8

$$$$
>  <smiles>
Cc1nc(-c2ccccc2)c(-c2ccncc2)o1

>  <quantity_unit>
%

>  <residual activity>
97.1

$$$$
>  <smiles>
COc1cc(Nc2c(C#N)cnc3cc(OCCCN4CCN(C)CC4)c(OC)cc23)c(Cl)cc1Cl

>  <quantity_unit>
%

>  <residual activity>
103

$$$$
>  <smiles>
CN(C)S(=O)(=O)c1ccc2c(c1)/C(=C/c1cc3c([nH]1)CCCC3)C(=O)N2

>  <quantity_unit>
%

>  <residual activity>
61.2

$$$$

Recorded values, source the kinase profiling compilation of Christmann-Franck et al. (2016).
